System: human platelets (ADP-induced aggregation)
Test: "In vitro" aggregation on human platelets (PRP), ADP-induced
Format: cell-based
Settings: Platelet, 0.25 h, compound 10^-4 M, 37° C., 15 minutes, 2.5 uM ADP
property_name: inhibition at 100 µM (%)

compound | target_or_system | assay_value
CC1=C(C(=O)OCCNC(=O)c2ccccc2O)C(C)C(C(=O)OCCN2C(=O)c3ccccc3S2(=O)=O)=C(C)N1 (stereo not drawn) | human platelets (ADP-induced aggregation) | 15
COC(=O)C1=C(C)NC(C)=C(C(=O)OCN2C(=O)c3ccccc3S2(=O)=O)C1C (stereo not drawn) | human platelets (ADP-induced aggregation) | 5
CCOC(=O)C1=C(C)NC(C)=C(C(=O)OCCN2C(=O)c3ccccc3S2(=O)=O)C1C (stereo not drawn) | human platelets (ADP-induced aggregation) | 12
CCCCC1C(C(=O)OC)=C(C)NC(C)=C1C(=O)OCCN1C(=O)c2ccccc2S1(=O)=O (stereo not drawn) | human platelets (ADP-induced aggregation) | 8
CCOC(=O)C1=C(C)NC(C)=C(C(=O)OCN2C(=O)c3ccccc3S2(=O)=O)C1C (stereo not drawn) | human platelets (ADP-induced aggregation) | 20
COC(=O)C1=C(C)NC(C)=C(C(=O)OCCN2C(=O)c3ccccc3S2(=O)=O)C1C (stereo not drawn) | human platelets (ADP-induced aggregation) | 20

The measurements presented in this section are drawn from patent US4782069A.
